B1: LINE1-mini (parent)
chain: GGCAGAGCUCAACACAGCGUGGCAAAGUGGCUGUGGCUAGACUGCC

- Variants of: B1
- assayExplanation: self-cleavage, relative activity (ratio to wild type); higher = more cleavage; in vitro, sequencing; the parent is a self-cleaving ribozyme
Label rule, in plain words: self-cleavage of 0.1 and up is Satisfied, under 0.1 is Not satisfied.

Here's what some known entries look like.
{"mutant": "A25U G33A", "category": "Satisfied"}
{"mutant": "G1C G17U", "category": "Not satisfied"}
{"mutant": "C10G G27A", "category": "Satisfied"}
{"mutant": "G5U G36A", "category": "Satisfied"}
{"mutant": "G30U G40C", "category": "Not satisfied"}
{"mutant": "A14U G36A", "category": "Satisfied"}
{"mutant": "A6U C8G", "category": "Satisfied"}
{"mutant": "U28C G44A", "category": "Satisfied"}

Prompt line: Reported self-cleavage at or above 0.1? C31A G36A
Response line: Satisfied

Prompt line: Next: G21A G35U
Response line: Satisfied

Prompt line: Next: G19C U34C
Response line: Satisfied

Prompt line: Next: C18A G30A
Response line: Satisfied

Prompt line: Next: A11C A12G
Response line: Not satisfied

Prompt line: Next: C15G G29A
Response line: Not satisfied

Prompt line: Next: C10A A26G
Response line: Satisfied

Prompt line: Next: G21C U43A
Response line: Not satisfied

Prompt line: Next: A39C C46A
Response line: Satisfied

Prompt line: Next: U32C G44A
Response line: Not satisfied

Prompt line: Next: C3U A14U
Response line: Satisfied

Prompt line: Next: A14U G40U
Response line: Satisfied

Prompt line: Next: A11C G17C
Response line: Not satisfied
